# Tested on: SK-MEL-28 melanoma
# ASSAY_TEXT: NCI-60 one-dose screen, 48 h (100 = growth as untreated, 0 = no growth, -100 = all killed)
# TEST_CONTEXT: 10 µM unless noted
This is part of a sample that, as a whole, favours compounds with a hit. Of some 83,000 tested, about 20% had one in any assay.
ENDPOINT: growth (%)

1. COC(=O)c1cc(C(=O)C(F)(F)F)n2c3ccccc3c3ccccc3c12
111
2. O=S(=O)(c1nc(-c2ccc(Br)cc2)oc1-c1ccc(Cl)cc1)N1CCCC(O)C1 (stereo unspecified)
79.4
3. Cn1cc(-c2cc3nc(-c4cn(C)c5ncccc45)cc(N)n3n2)c2cc(F)ccc21
92.8
4. CC(C)(C)C(=O)c1c2c(c3ccc4c5ccccc5ccc4n13)C(=O)c1ccccc1C2=O
105
5. CN1C(=O)/C(=C/c2ccco2)S/C1=N/c1nccs1
112
6. Clc1ccc(-c2nc3c4c(-c5ccccc5)c(-c5ccccc5)n(Cc5ccccc5)c4ncn3n2)cc1
36.2
7. Cc1nc2sccn2c1-c1nnc(SCc2ccccc2)o1
94.8
8. CCC(=O)c1cc(C(=O)OC)c2ccc3c4ccccc4ccc3n12
99.6
9. Cc1nn(-c2ccccc2)c2nc(C)n(C(=O)N/N=C/c3ccccc3)c(=O)c12
105
10. Fc1ccccc1CNc1nc(SCCN2CCOCC2)nc2c1cnn2CC(Cl)c1ccc(Br)cc1 (stereo unspecified)
22
11. COc1cc(C2CC(c3ccc(C(F)(F)F)cc3)=Nc3c(N)nc(N)nc3N2)ccc1Oc1nc(Nc2ccc(F)cc2)nc(N(C)C)n1 (stereo unspecified)
71.5
12. Cc1cccc(-c2ccccc2Oc2ccc3nnc(Cl)n3n2)c1
107
13. O=C(CSc1nnc(-c2ccc(-c3nc4ccccc4[nH]3)cc2)o1)Nc1ccc(Br)cc1
-63.6
14. CC(C)CN1C(=O)/C(=C\C(=O)c2cc3ccccc3oc2=O)c2ccccc21
90.1
15. Cc1ccc(Cl)cc1NC(=O)N/C(N)=N/c1nc2ccccc2s1
19.6
16. COc1cncc(-c2ccc3ncnc(N4CCc5ccc(Cl)cc54)c3c2)c1
48.6
17. O=C(Cc1c(-c2ccccc2[N+](=O)[O-])n(-c2ncnc3c2c(-c2ccccc2)c(-c2ccccc2)n3Cc2ccccc2)[nH]c1=O)c1ccc(Cl)c(Cl)c1
27.8
18. Cc1ccccc1NC(=O)c1cccc(NC(=O)CCl)c1
71.1
19. C=CC(=O)Nc1ccc(C(=O)/C=C/c2ccc(N(C)C)cc2)c(O)c1
-6.18
20. Clc1ccc(CNc2nc(SCCN3CCOCC3)nc3c2cnn3CC(Cl)c2ccc(Br)cc2)cc1 (stereo unspecified)
56.2
21. N#Cc1ccc(C(=O)CSc2nc3c(c(Nc4ccc(S(N)(=O)=O)cc4)n2)CCC3)cc1
48.5
22. CC1=C(C)C(=O)C(N2CCSCC2)=CC1=O
107
23. Cc1oc(-c2ccccc2)nc1CN[C@@H]1C[C@@H]2C[C@H]([C@H]1C)C2(C)C
2.07
24. O=c1c(-c2nc(-c3ccccc3)c(-c3ccccc3)[nH]2)coc2ccc(F)cc12
69.6
25. O=C1c2cccc3c(N4CCN(c5ccccc5)CC4)ccc(c23)C(=O)N1c1cccc(-c2nn(-c3ccccc3)cc2-c2nc3ccccc3s2)c1
104
26. Nc1cc2ccccc2c(=O)n1NC(=O)c1ccccc1
98.8
27. COC(=O)c1c(C(=O)OC)c2c3ccccc3c3ccccc3n2c1C(=O)C(F)(F)F
103
28. Nc1nn2c(-c3cc4cc(Br)ccc4oc3=O)ccnc2c1N=Nc1ccc(S(N)(=O)=O)cc1
80.7
29. O=C1Nc2cc(-c3ccc(NS(=O)(=O)c4ccc(C(F)(F)F)cc4)cc3)ccc2/C1=C/c1ccc[nH]1
47.4
30. COc1ccc(-c2cc(-c3cc(C(C)C)c(O)cc3C)nn2-c2ccc(S(N)(=O)=O)cc2)cc1
58.8
31. COc1ccc(-c2nc3ccc(-c4nnc(SCC(=O)Nc5ccc(/C(C)=N\O)cc5)o4)cc3[nH]2)cc1
-64.6

Where do these numbers come from? They come from PubChem BioAssay (NCI).
